- EXPERIMENT_NOTES: Quantitative High-Throughput drug screen in 47 multiple myeloma cell lines against the NCATS MIPE library collection: H1112_PLB cell viability assay (AID 1918967; further: nearly all actives have a fitted effect of over 30% in size)
- TEST_CONDITIONS: H1112 myeloma cells viability, ATP luminescence, 48 h; series mostly up to 45.8 µM
Records with an inconclusive call do not appear. Activity calls are given as the source filed them. The call rests on the fitted dose curve; in most records, active means well fitted cell-killing curve with a large enough effect; inconclusive means small, poorly fitted or top-dose-only effect, or effect the other way; inactive means no such curve, though single readings can be large or run the other way.
Classes used: active, inactive

1. CC(=O)Oc1cc2c(s1)CCN(C(C(=O)C1CC1)c1ccccc1F)C2 (stereo unspecified) | active
2. O=C1c2c(O)cc(O)cc2O[C@H](c2cc(O)c(O)c(O)c2)[C@H]1O | inactive
3. COC(=O)C1=CO[C@@H](O)[C@@H]2C(CO)=CC[C@@H]12 | inactive
4. CCS(=O)(=O)N1CC(CC#N)(n2cc(-c3ncnc4[nH]ccc34)cn2)C1 | inactive
5. COc1ccc2c(Oc3ccc(NC(=O)c4c(C)n(CC(C)(C)O)n(-c5ccccc5)c4=O)nc3)ccnc2c1 | inactive
6. O=c1c(-c2ccc(O)cc2)coc2cc(O)ccc12 | inactive
